Dear all, I have gathered published IC50 values for PIP4K2B (Homo sapiens, UniProt P78356); the list follows.

COMPOUND | RECORDED_METRIC | OBSERVED
CC1Oc2cc(N3CCCC3=O)ccc2-c2cnc(Nc3cncc(NC(=O)CO)c3)cc21 (stereo not shown) | IC50 | 10 to 100 nM
COc1ncc(Nc2ccc(-c3ccc(N4CCCC4=O)cc3)cn2)cc1NC(C)=O | IC50 | 10 to 100 nM
O=C1CCCN1c1ccc(-c2cncc(-c3ccnc4c3cc3n4CCN(c4ccccn4)C3=O)c2)cc1 | IC50 | 10 to 100 nM
O=C(NCCc1ncc[nH]1)c1cc2c(-c3cncc(-c4ccc(N5CCCC5)cc4)c3)ccnc2[nH]1 | IC50 | 10 to 100 nM
CC1Oc2cc(N3CCCC3=O)ccc2-c2cnc(Nc3cnc4c(c3)NC(=O)CO4)cc21 (stereo not shown) | IC50 | 100 to 1000 nM
CN(C)C(=O)c1ccc(-c2ccc(Nc3cncc(NC(=O)Cc4ccccc4)c3)nc2)cc1 | IC50 | 10 to 100 nM
CS(=O)(=O)N1CCOc2ncc(Nc3cc4c(cn3)-c3ccc(N5CCCC5=O)cc3OC4)cc21 | IC50 | 1 to 10 nM
O=C1Cc2c(-c3cncc(-c4ccc(N5CCCC5=O)cc4)c3)ccnc2N1 | IC50 | 1000 to 2500 nM
COCc1nc(Nc2cnc3c(c2)N2C(=O)CC[C@H]2CO3)ncc1-c1ccc(N2CCCC2=O)cc1 | IC50 | 1 to 10 nM
CC(=O)Nc1cc(Nc2cc3c(cn2)-c2ccc(N4CCCC4=O)cc2OC3C)cnn1 (stereo not shown) | IC50 | 10 to 100 nM

Could you now consider this next compound?
// lookup IC50 for O=C(NCCc1ccccc1)c1cc2c(-c3cncc(-c4ccc(N5CCCC5=O)cc4)c3)ccnc2[nH]1 10 to 100 nM

###

IC50 for UniProtKB P78356, merged from several publications.

MOLECULE | OBSERVED
CN(C)C(=O)c1ccc(-c2cc(-c3ccnc4[nH]c(C(=O)N5CC(C(N)=O)C5)cc34)cnc2N)nc1 | 100 to 1000 nM
CC(O)C(=O)N1CCOc2ncc(Nc3ccc(-c4ccc(C(=O)N(C)C)cc4)cn3)cc21 (centres unmarked) | 10 to 100 nM
CN(C)C(=O)c1cc2c(-c3cncc(-c4ccc(N5CCCC5=O)cc4)c3)ccnc2[nH]1 | 10 to 100 nM
Cc1conc1-c1ccc2c(c1)OC(C)(C)c1nc(Nc3cnc4c(c3)N(C(=O)N(C)C)CCO4)ncc1-2 | 1 to 10 nM
CN(C)C(=O)c1ccc(-c2ccc(Nc3cncc(NC(=O)c4cccc5[nH]ccc45)c3)nc2)cc1 | 10 to 100 nM

// lookup IC50 | system=UniProtKB P78356 | key= CC(C)n1ccnc1-c1ccc(-c2cncc(-c3ccnc4c3cc3n4CCN(C)C3=O)c2)cc1 1000 to 2500 nM

Give the reported IC50 for COCc1nc(Nc2cnc3c(c2)N2C(=O)C4(CC4)C[C@H]2CO3)ncc1-c1ccc(N2CCCC2=O)cc1 (system: UniProtKB P78356). 1 to 10 nM

For UniProtKB P78356, provide IC50 of CC(C)n1cnnc1-c1ccc(-c2cncc(-c3ccnc4[nH]c(C(=O)NCCCCCCCCNC(=O)COc5cccc6c5C(=O)N(C5CCC(=O)NC5=O)C6=O)cc34)c2)cc1 (centres unmarked) please. 100 to 1000 nM

Which IC50 is reported with UniProtKB P78356 for this entry: COc1cc(Nc2cnc3c(c2)N2C(=O)CC[C@H]2CO3)ncc1-c1ccc(N2CCCC2=O)cc1 ? 1 to 10 nM

# value lookup — system UniProtKB P78356, readout IC50, item O=C1CCCN1c1ccc(-c2ccc(Nc3cnc4c(c3)N(C(=O)C3CC3)CCO4)nc2)cc1 10 to 100 nM
